test: soluble on expression in E. coli; label from the status in PepcDB or PDB records
Reported Property: soluble on expression in E. coli

Seq String: MGSDKIHHHHHHMNTIEDNLNQRISARIRIERESRGWSLNDLAERAGASRAMIHKIERGESSPTASMLGRLSGAFGISMSTLIARAEMQEGKLLRFASQPVWRDPQSHYLRRHVSPRSDLPIDLVQIELPPGSDVPMPAASYALARQLIWLQQGELVFVEGNTRHEMQAGDCLELGPPNDCRFINESAETCVYLVVRLNQSPSGS
Reported Property: soluble on expression in E. coli
Experimental Result: not soluble

Seq String: MAGASHDIHPPKVEYFDLRDHTNTDPKGFVRHVDHYRVEPWGLYMARTSDHPQFHYLESWLLPDLGLRASIFHYHPYHQRDQDHYVDIGTFTRGDDVWKSEDHYLDLVVRTGRDTELLDVDELMEAHTTGLLDTATAEQAILTATTAIDGIAAHGHDLGRWLASIGMPIDWR
Reported Property: soluble on expression in E. coli
Experimental Result: soluble

Seq String: MGSDKIHHHHHHMGVQETKIYPINTGWLEADLGTYIFWKGPAGQKIWNPVYCHYVDTGTHKILIDTGLCDEERATKYHHKCDKRGCLQVHEHLEQKLGVHPDEIDAVVFTHLHWDHVQNMKEFKNARYIAPKAEIEMAFNPLPLYYRTYESGYLGIEPAYTGCVFEAVEDECEVLPGITMFHTPGHSVGHMAVTVATSAGDIVVAGDAIFQERNMEPNEAEGWRYWVPARFVNSYEGWKSVEELDKRADYILACHDKVANARSNVFPYEGMPIRKRRQHIPGFKFYFGDMPAGATDKAAPALTADEAKEYLANLVPPTPD
Reported Property: soluble on expression in E. coli
Experimental Result: not soluble

Seq String: MSLKKILILFFSIILSLGMVSCSSSGDYKNVSTSKIKKALKSSDLLIKESKIFDAKDFNYFNDVEEDIIQGFVINSSEKLSLEDIIVIKTDEVDKIYKTLENYKKDMIQAPFGEGHGEKINSEIANNTIIEKAGRYVYLISAENATQIENKILNIIKEGHHHHHH
Reported Property: soluble on expression in E. coli
Experimental Result: soluble

* * *

experiment: soluble on expression in E. coli; label from the status in PepcDB or PDB records

Seq String: MVDKLKQQNCTISTCESLTAGLMAATIANLPGSSQVLRGGLITYATDSKVSVAGVPGATVEEHGPVSWQCAEAMAIGAKRQFQSQWAVSLTGVAGPATQCGQPVGTVWIGVALPNGTVKSKLVADILCGPGQVVAGDRQTIRLAAVRAAAMWITDLLGLEYTNEN
soluble on expression in E. coli: not soluble
//
Seq String: MGHHHHHHSHMWKDFIDHISSLLHSVEVEVSYFAAGIIAHLISRGEQAWTLSRSQRNSLLDDLHSAILKWPTPECEMVAYRSFNPFFPLLGCFTTPGVQLWAVCAMQHVCSKNPSRYCSMLIEEGGLQHLYNIKDHEHTDPHVQQIAVAILDSLEKHIVRHGRPPPCKKQPQARLN
soluble on expression in E. coli: not soluble
//
Seq String: MLSVIGIGPGSQAMMTMEAIEALQAAEIVVGYKTYTHLVKAFTGDKQVIKTGMCREIERCQAAIELAQAGHNVALISSGDAGIYGMAGLVLELVSKQKLDVEVRLIPGMTASIAAASLLGAPLMHDFCHISLSDLLTPWPVIEKRIVAAGEADFVICFYNPRSRGREGHLARAFDLLAASKSAQTPVGVVKSAGRKKEEKWLTTLGDMDFEPVDMTSLVIVGNKTTYVQDGLMITPRGYTL
soluble on expression in E. coli: not soluble

* * *

assay: soluble on expression in E. coli; label from the status in PepcDB or PDB records

Seq String: SLTTENQNPLVLDKNEEISQQKADDIRLQLRQEPEVKRLAQQIDVKNQMELLEYGKEPAVEISKFSDRILGMMKTTSVTDSGTMLTQLGKIMDRFDKNDFDEPKGLMAKIFKRGGSMIEKIFKKYQTLGGEIEKIHVEISKYKDEMTKTNYTLDEMYENNIKYYMELEKYVVAGQMKLEEMQSILPSYEEKAASGNQLAQMQLDTLRNGIQALEERVYDLDMARMVALQTAPQIRLLQRGNAKLIGKINSAFIITIPIFKNGIIQAVTVKRQKLVADSMSELDRRTNEMLKRNAENISSQSVEIARMAGRPSIDIETIESSWNTIVSGMQETKQIEEENKRLREDGARRIAQLQDNIKKAALQQ
soluble on expression in E. coli: soluble
//
Seq String: MKKVVAVVKLQLPAGKATPAPPVGPALGQHGANIMEFVKAFNAATANMGDAIVPVEITIYADRSFTFVTKTPPASYLIRKAAGLEKGAHKPGREKVGRITWEQVLEIAKQKMPDLNTTDLEAAARMIAGSARSMGVEVVGAPEVKDA
soluble on expression in E. coli: soluble

* * *

assay: soluble on expression in E. coli; label from the status in PepcDB or PDB records
Reported Property: soluble on expression in E. coli

Seq String: GMKDTDETAFLNSLFMDFTSENELELFLKSLDEVWSEDLYSRLSAAGLIRHVISKVWNKEQHRISMVFEYDSKEGYQKCQEIIDKEFGITLKEKLKKFVFKIHNNRGVVVSEFIRST
Experimental Result: soluble
//
Seq String: MAILAFDLGGSSVKYGVWTGKELTNQGSFPTPGSWEEMKAHLYSVYADKRNESISGVAFSSPGVVDEKSQQILGISAIPYIHHFNIYEELEALFGLPVTIENDANCAGLAEIYEGAAKGKKEVLFVVIGTGIGGAIFRNGELYKGAHLYGGEFGLNFLSNGQTFSEIGTAVKMAQRYCERIGVEKQAVTGEEVFELAQRGDEIAREEVNNFYDYLTQGLFGLQFSYDPEMIVLGGGVSAKEGLLAEINRRMLTHLQTFELKDFVPEIVTCHYQNDANLIGAAANFQAKTNWEL
Experimental Result: not soluble
//
Seq String: KDADVDITLIDRTNHHLFQPLLYQVATGILSSGEIAPQTRQVLAQQNNVHVLKAEVTDIDTESKTVVADLDDYSKTIEYDSLIVAAGAGQSYFGNDHFAEFAPGMKTIDDALELRARIIGAFERAEMCEDPKERERLLTFVIVGAGPTGVELAGQLAEMAHRTLSGEYTQFTPSNAKIILLDGAPQVLPPFGKR
Experimental Result: not soluble
//
Seq String: MTLELLQAQAQNCTACRLMEGRTRVVFGEGNPDAKLMIVGEGPGEEEDKTGRPFVGKAGQLLNRILEAAGIPREEVYITNIVKCRPPQNRAPLPDEAKICTDKWLLKQIELIAPQIIVPLGAVAAEFFLGEKVSITKVRGKWYEWHGIKVFPMFHPAYLLRNPSRAPGSPKHLTWLDIQEVKRALDALPPKERRPVKAVSQEPLF
Experimental Result: soluble

* * *

experiment: soluble on expression in E. coli; label from the status in PepcDB or PDB records
Reported Property: soluble on expression in E. coli

Examples with their reported soluble on expression in E. coli follow.
Seq String: MTLSAIQPNDMALYHYDSCPFCAKTRHAINELDLNIELRNIQKNHQHRIELQQGGNKTQVPCLRIGQSNGKAQWLYESGDIINFLRNRK
soluble on expression in E. coli: not soluble

Seq String: MSLKKIEKIIEKEIHKNKLLQALMKKNQKTDKKTVFELVKQFNQKLNLTTILKTIRTKRSTYYYWLKAENKIKAKKEKYLLQQNRIKALCLHQQYFYGHRKITDLYQKTFNEFITKKKVYTIMKKNDINCRLRIKKNKYNYKNNLKTKLKVVDNLINQDFISIAPLQKLFTDITYFKIPQGFLYFSCIIDSFNNQIIASHTSKHQNKELVLNTIQKLPLLKEPCIIHSDQGTVYQSQKVQQTLTKKGFLISMSRKATPRDNAVIENFFGQMKTILQHQHPFLFQKSTKKLKKIINHFPKFWNNQWILAKLNYSSPSQYSQNLIEGHHHHHH
soluble on expression in E. coli: not soluble

Seq String: MAHHHHHHMRERKPIRKMKRSRVSDQIIRVEEPDAEEGEASPAKATPVPHFSDRRICINVGGEYITTLASTLCSEPSKFSEWVENNFQGLPRDSMGNPFIDRDPENFRQIISYLRGYELPTATEKIVFLAEDAEYYHIDRLLALINPPAEWRFVSGPGVSSSRKEFSTENILATCGNEPLPQVGKSVFLLRIDKCELVSIGLVGTESPDHDEPLERQTNAIAYRSTGELIRSLNSSSTFFSGNGYKGRDTVMVQVLFKPEGAAQIEFFCNDVKTHETEWLSPVPPLRFAVSLHGVSAVVIERCVAGVKDEDM
soluble on expression in E. coli: not soluble

Seq String: MGHHHHHHSHPRRLAWCSIDWEQVCLLQRLGAGGFGSVYKATYRGVPVAIKQVNKCTKNRLASRRSFWAELNVARLRHDNIVRVVAASTRTPAGSNSLGTIIMEFGGNVTLHQVIYGAAGHPEGDAGEPHCRTGGQLSLGKCLKYSLDVVNGLLFLHSQSIVHLDLKPANILISEQDVCKISDFGCSEKLEDLLCFQTPSYPLGGTYTHRAPELLKGEGVTPKADIYSFAITLWQMTTKQAPYSGERQHILYAVVAYDLRPSLSAAVFEDSLPGQRLGDVIQRCWRPSAAQRP
soluble on expression in E. coli: not soluble

Ask: Please supply the value of reported soluble on expression in E. coli for the item MLQGHRTWVFENKPVIISTGVVGGPFEAKGNIPEDFDILHEDLWLGQDSYEKAHKILFEEACSRATEKAELRKDDIQFVLAGDLINQITPTSFACRTLGTPYLGLFGACSTSMEGLALGASIVNAKGAKYLLTGASSHNTAVEKQFRYPTEYGGQKPPTAQWTVTGAGAAILSDTGHGPRVTSATIGRVIDMGLTDPFNMGGAMAPAAVDTIEAHLRERQIDASYYDLIVTGDLGHVGREIAYDLLHKHGTKVTSEQFQDCGIIIYREGQPVIAGASGPGCSATVVYGHLLNRMKRGEFKKILVVATGALLSPLTFQQEETIPCIAHAVSIEFGGATQLEHHHHHH
Result: soluble

Ask: Please supply the value of reported soluble on expression in E. coli for the item PKGSIIVSTRAPVGYVAIVDEDTTFNQGCKGLIPKSSEINTEFYCYYLLLIKRKLEQLSGGSTFKELPKKSLEELLIPLLPLPEQQKIAEILSTV
Result: soluble

Ask: Please supply the value of reported soluble on expression in E. coli for the item MRVLVTGGAGFIGSHIVEDLLARGLEVAVLDNLATGKRENVPKGVPFFRVDLRDKEGVERAFREFRPTHVSHQAAQASVKVSVEDPVLDFEVNLLGGLNLLEACRQYGVEKLVFASTGGAIYGEVPEGERAEETWPPRPKSPYAASKAAFEHYLSVYGQSYGLKWVSLRYGNVYGPRQDPHGEAGVVAIFAERVLKGLPVTLYARKTPGDEGCVRDYVYVGDVAEAHALALFSLEGIYNVGTGEGHTTREVLMAVAEAAGKAPEVQPAPPRPGDLERSVLSPLKLMAHGWRPKVGFQEGIRLTVDHFRGAV
Result: soluble

Ask: Please supply the value of reported soluble on expression in E. coli for the item MWTEQHVKEIDSIIRKKEDEQLSLPIMEQKLQINNRRYLGSKYKLLEFICKVVRENCTSVSSVADIFGGTGVVADRFNKEGKDIIVNDILYSNYLAYLTWFSNEKVNITKIEKLIKFFNESEPTEDNYVSINFGGTYFTEYNARKIGYVREEIEKMSDELNAREKAILITSLIYAMDKVANTVGHYDAYRRKLDSIKEIKLLMPEFNDGLNNGNKIFKEDANELVRKISADLIYIDTPYNSRQYGDAYHLLENIAEWEKPDLVGVAKKMIDRSHIKSDYCTMKATSAFADLISNIKGKYILVSYNNMAQKGVGRSNAKISSEEIVEILETRGTVEIFETNFQAYTTGKTNIDDHKEILYLCEVSR
Result: not soluble

Ask: Please supply the value of reported soluble on expression in E. coli for the item MHSVARENLQAYLHSYKLSSNEPGIKLMHNSQRDDQHRKDVEHFAALRALQHSKRKHVAFAVQAMRDYDGSLDEKSPLKDHTISFNTNDFIHIHTKFNSDWWIGRIVRSHSEFGFVPTARRLANYMVSDEDPPVKHNTSDHQDRSIWEPKCPYKVVPSSRPIVLLGPTLQHSRLTQLLHLALREEILKHFGKNMKYVKSDIGSGQQSGDRKGARWLRGLRDYDRGQDENQEVELIMRMTSKLHLLLVDSPHIHTPDDVQHLPLSPIFFLIRVSDNKILAKLLRNTGTTRMAAEIEVANVLKTMNDDRVGGHDDEQLIARGFEMVIEENGLREATRRIISYLEKYIHALHYHHKDDEI
Result: not soluble

Ask: Please supply the value of reported soluble on expression in E. coli for the item WGYEAVGRFTSWEQIATYPIDNDRKGNKTVVPGDIMYKDVNGDGVINYMDERPIGYRSDSTPTLNFGINLSASWKGFDLAMDWTGSGMTSWQQQYETARPFQNDGNSPEEVFKDAWHLADIWDADSQLIPGKYPLIRLNNEETSAYDKSTFWLHNVKYIKLRNLEFGYTLPKRIVAKAGISNLRLYVSGTNLFSISNIPFMDPECIDSNGLDYPTMRVVNLGINLKF
Result: not soluble

Ask: Please supply the value of reported soluble on expression in E. coli for the item MQAGPALMRILPISTIKGKLNEFVDAVSSTQDQITITKNGAPAAVLVGADEWESLQETLYWLAQPGIRESIAEADADIASGRTYGEDEIRAEFGVPRRPHDYKDDDDK
Result: soluble
